# Lookup of reported LogP [b] keyed by entry
Experiment: Measurement of log P values by HPLC on reversed phase columns (EEC directive 79/831 Annex V.A8)
Format: physicochemical
Details: LC-MS at pH 2.7, 0.1% formic acid in water / acetonitrile

Data request: Recorded LogP [b] of "Cn1cc(C(=O)NCC2(c3ccc(Br)cn3)CC2)c(C(F)F)n1" , please.
Data returned: 2,31

Next:
Data request: Recorded LogP [b] of "O=C(NCC1(c2cccc(Cl)n2)CC1)c1ccccc1I" , please.
Data returned: 2,98

Data request: Repeat with "O=C(NCC1(c2ccc(Br)cn2)CC1)c1cccnc1C(F)(F)F"
Data returned: 2,51

Data request: Repeat with "O=C(NCC1(c2cccc(Cl)n2)CC1)c1ccccc1C(F)(F)F"
Data returned: 3

Data request: Repeat with "O=C(NCC1(c2ccc(Cl)cn2)CC1)c1ccccc1C(F)(F)F"
Data returned: 2,91

Data request: Repeat with "O=C(NCC1(c2ccc(Br)cn2)CC1)c1cccnc1Cl"
Data returned: 2,17

Data request: Repeat with "O=C(NCC1(c2ccc(Br)cn2)CC1)c1ccccc1I"
Data returned: 3,1

Data request: Repeat with "O=C(NCC1(c2cccc(Cl)n2)CC1)c1c(F)cccc1F"
Data returned: 2,63

Data request: Repeat with "Cn1cc(C(=O)NCC2(c3cccc(Cl)n3)CC2)c(C(F)F)n1"
Data returned: 2,25

Data request: Repeat with "O=C(NCC1(c2cccc(Cl)n2)CC1)c1cccnc1C(F)(F)F"
Data returned: 2,42

====

Test: Measurement of log P values by HPLC on reversed phase columns (EEC directive 79/831 Annex V.A8)
Assay type: physicochemical
Conditions: reversed phase HPLC column; LC-MS at pH 2.7, 0.1% formic acid in water / acetonitrile; read-out: LogP [b]
metric: chromatographic logP
Please reply with the number alone, leaving off any unit.

Data request: Recorded chromatographic logP of "O=C(NCC1(c2ncc(Br)cc2Cl)CC1)c1cccnc1C(F)(F)F" , please.
Data returned: 2.88

Next:
Data request: Recorded chromatographic logP of "Cn1cc(C(=O)NCC2(c3ncc(C(F)(F)F)cc3Cl)CC2)c(C(F)F)n1" , please.
Data returned: 2.63

====

# Lookup of reported LogP [c] keyed by entry
Assay: Measurement of log P values by HPLC on reversed phase columns (EEC directive 79/831 Annex V.A8)
Format: physicochemical
Details: LC-MS at pH 7.8, 0.001 molar ammonium hydrogen carbonate in water / acetonitrile

Data request: Recorded LogP [c] of "O=C(NCC1(c2cccc(Cl)n2)CC1)c1cccnc1C(F)(F)F" , please.
Data returned: 2,41

Data request: Repeat with "O=C(NCC1(c2cccc(Cl)n2)CC1)c1ccccc1C(F)(F)F"
Data returned: 2,99

Data request: Repeat with "O=C(NCC1(c2cccc(Cl)n2)CC1)c1ccccc1I"
Data returned: 2,96

Data request: Repeat with "Cn1cc(C(=O)NCC2(c3cccc(Cl)n3)CC2)c(C(F)F)n1"
Data returned: 2,24

Data request: Repeat with "O=C(NCC1(c2ccc(Br)cn2)CC1)c1ccccc1I"
Data returned: 3,09

====

Assay: Measurement of log P values by HPLC on reversed phase columns (EEC directive 79/831 Annex V.A8)
Format: physicochemical
Details: LC-MS at pH 7.8, 0.001 molar ammonium hydrogen carbonate in water / acetonitrile
metric: LogP [c]

Data request: Recorded LogP [c] of Cn1cc(C(=O)NCC2(c3ccc(Br)cn3)CC2)c(C(F)F)n1 [Example 12] , please.
Data returned: 2,33

Next:
Data request: Recorded LogP [c] of O=C(NCC1(c2ccc(Br)cn2)CC1)c1cccnc1Cl [Example 11] , please.
Data returned: 2,18

Data request: Repeat with O=C(NCC1(c2cccc(Cl)n2)CC1)c1c(F)cccc1F [Example 2]
Data returned: 2,62

Data request: Repeat with O=C(NCC1(c2ccc(Br)cn2)CC1)c1cccnc1C(F)(F)F [Example 10]
Data returned: 2,5

Data request: Repeat with O=C(NCC1(c2ccc(Cl)cn2)CC1)c1ccccc1C(F)(F)F [Example 15]
Data returned: 2,96
